Catalogue of pEC50 readings, one per entry.
# Test system: Sandfly fever virus, Naples strain (SFNV)
# protocol.summary: microbe, parasite or virus in culture
# experimental.parameters: sandfly fever Sicilian virus, Vero 76, read-out: EC50 ± SD (CPER)
// field semantics: pEC50 = negative decimal log of concentration (mol/L)

pEC50 measured on NC(=O)c1nccn([C@@H]2O[C@H](CO)[C@@H](O)[C@H]2O)c1=O [T-1106] = 3.82

# input for lookup
pEC50 recorded for this molecule, NC(=O)c1nc(F)cnc1O [T-705, 6-fluoro-3-hydroxy-2-pyrazinecarboxamide] , is 4.52

* * *

# protocol.summary: in vitro
# experimental.parameters: monkey, CC50 ± SD
Below, each entry is listed alongside its reported CC50.

Looking up NC(=O)c1nccn([C@@H]2O[C@H](CO)[C@@H](O)[C@H]2O)c1=O , I see its CC50 listed as > 3.71 mM

Continuing:
CC50 recorded for this compound, NC(=O)c1nc(F)cnc1O [T-705, 6-fluoro-3-hydroxy-2-pyrazinecarboxamide] , is > 5.41 mM

* * *

# Test system: PTV, Adames strain
# protocol.summary: microbe, parasite or virus in culture
# experimental.parameters: Punta Toro virus, Vero 76, read-out: EC50 ± SD (CPER)
parameter: pEC50
Expect pEC50 as a plain number equal to -log10 of the molar concentration.

For record NC(=O)c1nccn([C@@H]2O[C@H](CO)[C@@H](O)[C@H]2O)c1=O [T-1106] the listed pEC50 is 3.13

Next, consider the following molecule.
Query NC(=O)c1nc(F)cnc1O [T-705, 6-fluoro-3-hydroxy-2-pyrazinecarboxamide] yields pEC50 of 4.26

Numbers sourced from paper PMC3008316.
